Tested on: antibiotic-resistant strain (A–E) of P. aeruginosa
Measurement description: MIC against antibiotic-resistant strains
Assay type: cell-based, Pseudomonas aeruginosa
Cond: antibiotic-resistant strain A
Quantity: Resistance/sensitivity class, strain A

Example results:
C[C@H]1COc2c(N3CCN(C)CC3)c(F)cc3c(=O)c(C(=O)O)cn1c23 [LVFX, levofloxacin hydrate] | S
NC[C@H]1O[C@H](O[C@H]2[C@H](O)[C@@H](O[C@H]3O[C@H](CO)[C@@H](O)[C@H](N)[C@H]3O)[C@H](N)C[C@@H]2N)[C@H](N)C[C@@H]1O | R
C[C@@H]1O[C@@H]1P(=O)(O)O [FOM, fosfomycin sodium] | R
CCN1CCN(C(=O)N[C@@H](C(=O)N[C@@H]2C(=O)N3C(C(=O)O)=C(CSc4nnnn4C)CS[C@H]23)c2ccc(O)cc2)C(=O)C1=O [CPZ, cefoperazone sodium] | S
C[C@H]1[C@H](NC(=O)/C(=N\OC(C)(C)C(=O)O)c2csc(N)n2)C(=O)N1S(=O)(=O)O | S

Would you kindly look at the next entry?
Resistance/sensitivity class, strain A measured on CC(C)(O/N=C(\C(=O)N[C@@H]1C(=O)N2C(C(=O)[O-])=C(C[n+]3ccccc3)CS[C@H]12)c1csc(N)n1)C(=O)O [CAZ, ceftazidime hydrate] = S
